- Tested on: HUVEC/MSC spheroids viability
- procedure text: Human HUVEC/MSC cell line growth inhibition [KRAS2];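 as to viability, T/C: percent of DMSO vehicle control luminescence so 100% = untreated viability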
- measurement setup: second compound 3 µM; first compound 0.316 µM; stronger effect = lower value
Collected viability, T/C values appear next to each entry.
Number only, in %; omit the unit.

compound	tested on	viability, T/C, %
CC1(C)CCC(CN2CCN(c3ccc(C(=O)NS(=O)(=O)c4ccc(NCC5CCOCC5)c([N+](=O)[O-])c4)c(Oc4cnc5[nH]ccc5c4)c3)CC2)=C(c2ccc(Cl)cc2)C1 + C=CC(=O)N1CCN(c2nc(OCC3CCCN3C)nc3c2CCN(c2cccc4cccc(C)c24)C3)CC1CC#N	HUVEC/MSC spheroids viability	94.8
CC(C)NCC(C(=O)N1CCN(c2ncnc3c2C(C)CC3O)CC1)c1ccc(Cl)cc1 (configuration not stated) + C=CC(=O)N1CCN(c2nc(OCC3CCCN3C)nc3c2CCN(c2cccc4cccc(C)c24)C3)CC1CC#N	HUVEC/MSC spheroids viability	81.2
Cn1nccc1Nc1nccc(-c2cc3c(s2)C(C)(C)N(CCN2CCOCC2)C3=O)n1 + C=CC(=O)N1CCN(c2nc(OCC3CCCN3C)nc3c2CCN(c2cccc4cccc(C)c24)C3)CC1CC#N	HUVEC/MSC spheroids viability	93.8
COC(=O)c1ccc2c(C(=Nc3ccc(N(C)C(=O)CN4CCN(C)CC4)cc3)c3ccccc3)c(O)[nH]c2c1 + C=CC(=O)N1CCN(c2nc(OCC3CCCN3C)nc3c2CCN(c2cccc4cccc(C)c24)C3)CC1CC#N	HUVEC/MSC spheroids viability	84.3
CCNC(=O)CC1N=C(c2ccc(Cl)cc2)c2cc(OC)ccc2-n2c(C)nnc21 (configuration not stated) + C=CC(=O)N1CCN(c2nc(OCC3CCCN3C)nc3c2CCN(c2cccc4cccc(C)c24)C3)CC1CC#N	HUVEC/MSC spheroids viability	82.7
O=C(c1cc(Cc2n[nH]c(=O)c3ccccc23)ccc1F)N1CCN(C(=O)C2CC2)CC1 + C=CC(=O)N1CCN(c2nc(OCC3CCCN3C)nc3c2CCN(c2cccc4cccc(C)c24)C3)CC1CC#N	HUVEC/MSC spheroids viability	111

Continue with the next compound.
Q. Determine its reported viability, T/C: COc1cc2nccc(Oc3ccc(NC(=O)C4(C(=O)Nc5ccc(F)cc5)CC4)cc3)c2cc1OC + C=CC(=O)N1CCN(c2nc(OCC3CCCN3C)nc3c2CCN(c2cccc4cccc(C)c24)C3)CC1CC#N
A. 92.4

----------
- Tested on: HUVEC/MSC spheroids viability
- procedure text: Human HUVEC/MSC cell line growth inhibition [KRAS2]
- measurement setup: curve of compound
readout type: IC50

Reference set (5 entries):
compound	IC50
Cn1ncnc1[C@H]1c2n[nH]c(=O)c3cc(F)cc(c23)N[C@@H]1c1ccc(F)cc1	> 0.1 µM
CC(=O)OC12COC1CC(O)C1(C)C(=O)C(O)C3=C(C)C(OC(=O)C(O)C(NC(=O)OC(C)(C)C)c4ccccc4)CC(O)(C(OC(=O)c4ccccc4)C21)C3(C)C (stereo not drawn)	< 0.00949 µM
COc1cc(OC)cc(N(CCNC(C)C)c2ccc3ncc(-c4cnn(C)c4)nc3c2)c1	66.1 nM [middle of 5 runs]
COc1cc2nccc(Oc3ccc(NC(=O)C4(C(=O)Nc5ccc(F)cc5)CC4)cc3)c2cc1OC	6.87 µM [middle of 5 runs]
COC(=O)c1ccc2c(C(=Nc3ccc(N(C)C(=O)CN4CCN(C)CC4)cc3)c3ccccc3)c(O)[nH]c2c1	1.96 µM [middle of 5 runs]

Q. Determine its reported IC50: COc1cc(Nc2ncc3c(n2)-c2ccc(Cl)cc2C(c2c(F)cccc2OC)=NC3)ccc1C(=O)O
A. > 10 µM

Q. Determine its reported IC50: Cn1nccc1Nc1nccc(-c2cc3c(s2)C(C)(C)N(CCN2CCOCC2)C3=O)n1
A. 2.65 µM [middle of 5 runs]

Q. Determine its reported IC50: O=C(c1cc(Cc2n[nH]c(=O)c3ccccc23)ccc1F)N1CCN(C(=O)C2CC2)CC1
A. > 10 µM

----------
- Test system: HUVEC/MSC spheroids viability
- procedure text: Human HUVEC/MSC cell line growth inhibition [KRAS2];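 as to viability, T/C: percent of DMSO vehicle control luminescence so 100% = untreated viability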
- measurement setup: second compound 0.00949 µM; first compound 1 µM; stronger effect = lower value
Collected viability, T/C values appear next to each entry.
Number only, in %; omit the unit.

Reference set (5 entries):
molecule	viability, T/C (%)
CC(C)NCC(C(=O)N1CCN(c2ncnc3c2C(C)CC3O)CC1)c1ccc(Cl)cc1 (stereo not given) + C=CC(=O)N1CCN(c2nc(OCC3CCCN3C)nc3c2CCN(c2cccc4cccc(C)c24)C3)CC1CC#N	66.7
CC1(C)CCC(CN2CCN(c3ccc(C(=O)NS(=O)(=O)c4ccc(NCC5CCOCC5)c([N+](=O)[O-])c4)c(Oc4cnc5[nH]ccc5c4)c3)CC2)=C(c2ccc(Cl)cc2)C1 + C=CC(=O)N1CCN(c2nc(OCC3CCCN3C)nc3c2CCN(c2cccc4cccc(C)c24)C3)CC1CC#N	91.4
Cn1nccc1Nc1nccc(-c2cc3c(s2)C(C)(C)N(CCN2CCOCC2)C3=O)n1 + C=CC(=O)N1CCN(c2nc(OCC3CCCN3C)nc3c2CCN(c2cccc4cccc(C)c24)C3)CC1CC#N	109
CC1OCC2(CCN(c3cnc(Sc4ccnc(N)c4Cl)c(N)n3)CC2)C1N (stereo not given) + C=CC(=O)N1CCN(c2nc(OCC3CCCN3C)nc3c2CCN(c2cccc4cccc(C)c24)C3)CC1CC#N	82.3
CCN1CCN(Cc2ccc(Nc3ncc(F)c(-c4cc(F)c5nc(C)n(C(C)C)c5c4)n3)nc2)CC1 + C=CC(=O)N1CCN(c2nc(OCC3CCCN3C)nc3c2CCN(c2cccc4cccc(C)c24)C3)CC1CC#N	149

Continue with the next molecule.
Q. Provide viability, T/C, recorded with HUVEC/MSC spheroids viability, of CCNC(=O)CC1N=C(c2ccc(Cl)cc2)c2cc(OC)ccc2-n2c(C)nnc21 (stereo not given) + C=CC(=O)N1CCN(c2nc(OCC3CCCN3C)nc3c2CCN(c2cccc4cccc(C)c24)C3)CC1CC#N
A. 115

----------
- Test system: HUVEC/MSC spheroids viability
- procedure text: Human HUVEC/MSC cell line growth inhibition [KRAS2];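 as to viability, T/C: percent of DMSO vehicle control luminescence so 100% = untreated viability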
- measurement setup: second compound 3.16 µM; first compound 0.316 µM; stronger effect = lower value
readout type: viability, T/C (%)
Number only, in %; omit the unit.

Reference set (2 entries):
compound	readout type	result units	readout value
Cn1nccc1Nc1nccc(-c2cc3c(s2)C(C)(C)N(CCN2CCOCC2)C3=O)n1 + CC1OCC2(CCN(c3cnc(Sc4ccnc(N)c4Cl)c(N)n3)CC2)C1N	viability, T/C	%	80.3
COC(=O)c1ccc2c(C(=Nc3ccc(N(C)C(=O)CN4CCN(C)CC4)cc3)c3ccccc3)c(O)[nH]c2c1 + CC1OCC2(CCN(c3cnc(Sc4ccnc(N)c4Cl)c(N)n3)CC2)C1N	viability, T/C	%	64.5

Q. Determine its reported viability, T/C: CCN1CCN(Cc2ccc(Nc3ncc(F)c(-c4cc(F)c5nc(C)n(C(C)C)c5c4)n3)nc2)CC1 + CNCc1ccccc1-c1csc(C(C)Nc2nc(C)nc3cc(OC)c(OC)cc23)c1
A. 123

Q. Determine its reported viability, T/C: COc1cc(Nc2ncc3c(n2)-c2ccc(Cl)cc2C(c2c(F)cccc2OC)=NC3)ccc1C(=O)O + COc1cc2nc(C)nc(NC(C)c3cc(N)cc(C(F)(F)F)c3)c2cc1OC1CCOC1
A. 102

Q. Determine its reported viability, T/C: CCNC(=O)CC1N=C(c2ccc(Cl)cc2)c2cc(OC)ccc2-n2c(C)nnc21 (stereo unspecified) + CNCc1ccccc1-c1csc(C(C)Nc2nc(C)nc3cc(OC)c(OC)cc23)c1
A. 117

Q. Determine its reported viability, T/C: CCNC(=O)CC1N=C(c2ccc(Cl)cc2)c2cc(OC)ccc2-n2c(C)nnc21 (stereo unspecified) + COc1cc2nc(C)nc(NC(C)c3cc(N)cc(C(F)(F)F)c3)c2cc1OC1CCOC1
A. 75.9

Q. Determine its reported viability, T/C: CC1(C)CCC(CN2CCN(c3ccc(C(=O)NS(=O)(=O)c4ccc(NCC5CCOCC5)c([N+](=O)[O-])c4)c(Oc4cnc5[nH]ccc5c4)c3)CC2)=C(c2ccc(Cl)cc2)C1 + CNCc1ccccc1-c1csc(C(C)Nc2nc(C)nc3cc(OC)c(OC)cc23)c1
A. 82

Q. Determine its reported viability, T/C: Cn1nccc1Nc1nccc(-c2cc3c(s2)C(C)(C)N(CCN2CCOCC2)C3=O)n1 + CNCc1ccccc1-c1csc(C(C)Nc2nc(C)nc3cc(OC)c(OC)cc23)c1
A. 128

Q. Determine its reported viability, T/C: COc1cc2nccc(Oc3ccc(NC(=O)C4(C(=O)Nc5ccc(F)cc5)CC4)cc3)c2cc1OC + CC1OCC2(CCN(c3cnc(Sc4ccnc(N)c4Cl)c(N)n3)CC2)C1N
A. 77.5

Q. Determine its reported viability, T/C: O=C(c1cc(Cc2n[nH]c(=O)c3ccccc23)ccc1F)N1CCN(C(=O)C2CC2)CC1 + C=CC(=O)N1CCN(c2nc(=O)n(-c3c(C)ccnc3C(C)C)c3nc(-c4c(O)cccc4F)c(F)cc23)C(C)C1
A. 146

Q. Determine its reported viability, T/C: CC(C)NCC(C(=O)N1CCN(c2ncnc3c2C(C)CC3O)CC1)c1ccc(Cl)cc1 (stereo unspecified) + COc1cc2nc(C)nc(NC(C)c3cc(N)cc(C(F)(F)F)c3)c2cc1OC1CCOC1
A. 76.9

// data source = PubChem BioAssay AID2060912
